tested.on: human activated protein C (Homo sapiens (Human), UniProt P04070)
Sequence (P04070 212-450): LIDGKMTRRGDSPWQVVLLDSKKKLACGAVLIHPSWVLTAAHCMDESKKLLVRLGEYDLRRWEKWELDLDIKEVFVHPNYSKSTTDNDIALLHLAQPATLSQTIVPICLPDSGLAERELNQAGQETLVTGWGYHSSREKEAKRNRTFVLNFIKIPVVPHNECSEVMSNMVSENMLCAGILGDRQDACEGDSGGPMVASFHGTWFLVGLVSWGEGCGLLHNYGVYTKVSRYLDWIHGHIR
Sequence (P04070 43-197 partner): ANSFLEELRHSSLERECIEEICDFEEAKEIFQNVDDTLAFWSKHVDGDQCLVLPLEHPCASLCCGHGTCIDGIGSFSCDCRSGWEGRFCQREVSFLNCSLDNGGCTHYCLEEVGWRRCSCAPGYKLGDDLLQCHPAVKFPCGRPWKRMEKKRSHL
assay.procedure: Inhibition of human activated protein C
run.parameters: Pefachrome PCa substrate; read-out: h aPC Ki
Items are presented alongside their recorded Ki.

{"compound": "COC(=O)N1CCC(CC[C@@H](NS(=O)(=O)Cc2ccccc2)C(=O)N[C@@H](CCC2CCNCC2)C(=O)NCc2ccc(C(=N)N)cc2)CC1", "Ki": "1350 nM"}
{"compound": "N=C(N)c1ccc(CNC(=O)[C@H](CCC2CCNCC2)NC(=O)[C@@H](CCC2CCN(C(=O)C3CC3)CC2)NS(=O)(=O)Cc2ccccc2)cc1", "Ki": "1500 nM"}
{"compound": "COCC(=O)N1CCC(CC[C@@H](NS(=O)(=O)Cc2ccccc2)C(=O)N[C@@H](CCC2CCNCC2)C(=O)NCc2ccc(C(=N)N)cc2)CC1", "Ki": "1200 nM"}
{"compound": "N=C(N)c1ccc(CNC(=O)[C@H](CCC2CCNCC2)NC(=O)[C@@H](CCCn2cnnn2)NS(=O)(=O)Cc2ccccc2)cc1", "Ki": "1300 nM"}
{"compound": "N=C(N)c1ccc(CNC(=O)[C@H](CCC2CCNCC2)NC(=O)[C@@H](CCCc2cc[n+]([O-])cc2)NS(=O)(=O)Cc2ccccc2)cc1 [drawing 123]", "Ki": "850 nM"}
{"compound": "N=C(N)c1ccc(CNC(=O)[C@H](CCC2CCNCC2)NC(=O)[C@@H](CCCc2cc[n+]([O-])cc2)NS(=O)(=O)Cc2ccccc2)cc1 [drawing 117]", "Ki": "850 nM"}
{"compound": "CC(C)C(=O)N1CCC(CC[C@@H](NS(=O)(=O)Cc2ccccc2)C(=O)N[C@@H](CCC2CCNCC2)C(=O)NCc2ccc(C(=N)N)cc2)CC1", "Ki": "1700 nM"}
